# System Under Test: human BMPR1B overexpressed on the surface of HEK293T cells (N-terminal Asp-Lys epitope tag, … (human, UniProt O00238 14-502))
# Sequence (O00238 14-502): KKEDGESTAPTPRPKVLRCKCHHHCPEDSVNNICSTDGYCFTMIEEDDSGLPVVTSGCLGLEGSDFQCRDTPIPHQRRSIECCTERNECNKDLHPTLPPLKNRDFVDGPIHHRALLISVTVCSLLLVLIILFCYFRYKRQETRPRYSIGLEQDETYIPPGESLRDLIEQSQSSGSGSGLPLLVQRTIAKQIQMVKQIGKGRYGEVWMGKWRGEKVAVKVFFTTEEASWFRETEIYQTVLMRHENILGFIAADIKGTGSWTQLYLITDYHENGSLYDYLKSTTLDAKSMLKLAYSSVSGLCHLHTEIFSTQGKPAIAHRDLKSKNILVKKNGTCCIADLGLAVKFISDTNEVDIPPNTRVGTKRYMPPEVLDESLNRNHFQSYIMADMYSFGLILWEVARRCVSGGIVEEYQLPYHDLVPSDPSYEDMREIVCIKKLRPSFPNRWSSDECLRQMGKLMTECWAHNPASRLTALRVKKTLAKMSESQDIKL
# Assay Overview: cell-based or functional assay
Reported Metric: % live, Fab-saporin, 100pM (%)

{"Binder": "SC91.19 (antibody, V domains shown) VH: QIQLVQSGPELKKPGETVKISCKASGYTFTTYGMNWVKQAPGKGLKWMGWINTYSGVPSSANDFKGRFAFSLETSASTAYLQINNLKNEDTATYFCARSELRNWYFDVWGTGTTVTVSS VL: SFVMTQTPKFLLVSAGDRVTITCKASQSVGNDVAWYQQKPGQSPKLLIYYASNRYTGVPDRFTGSGYGTDFTFTISTVQAEDLAVYFCQQDYSSPFTFGSGTKLEMK", "Reported Metric": "% live, Fab-saporin, 100pM", "Measured Value": 14.3}
{"Binder": "SC91.1 (murine anti-BMPR1B antibody) (antibody, V domains shown, Murine hybridoma antibody with a kappa light chain) VH: QVQLQQPGAELVKPGASVKLSCKASGYTFTSYWMQWVKQRPGQGLEWIGEIDPSDNYTLYNQKFKGKATLTVDTSSSTAYMQLSSLTSEDSAVYYCARFGYYVDYWGLGTTLTVSS VL: DVVMTQTPLSLPVSLGDQASIFCRSSQSLVHSTGNTYLHWYLQKPGQSPKLLIYKVSNRFSGVPDRFSGSGSGTDFTLKISRVEAEDLGVYFCSQSTHVPFTFGSGTKLEIK", "Reported Metric": "% live, Fab-saporin, 100pM", "Measured Value": 9.53}
